Where do these numbers come from? They come from PubChem BioAssay.

# Assay explanation: reversal of MRP1-mediated doxorubicin resistance, pilot screen, H69AR cells, doxorubicin co-treatment (AID 601)
# Test parameters: H69AR cells + 2 uM doxorubicin, CellTiter-Glo, 72 h; measured here: viability with 2 uM doxorubicin; at 10 µM; stronger effect = lower value
Outcome measure: viability (%)
Your answer should be a plain number; it is taken to be in %.

Solved cases below.
{"Molecule": "O=C(Cn1ncc2c(=O)oc3ccccc3c21)NCC1CCCO1 (centres undefined)", "Observed measurement": 102}
{"Molecule": "COc1ccc(N2CCN(c3ncnc4c3cnn4-c3ccc(C)cc3C)CC2)cc1", "Observed measurement": 19.4}
{"Molecule": "Cc1ccc(-n2nc(-c3cccs3)cc2C(=O)NCC2CCCO2)c(C)c1 (centres undefined)", "Observed measurement": 100}
{"Molecule": "COc1cccc(OC)c1C(=O)N1CCN(S(=O)(=O)c2ccccc2)CC1", "Observed measurement": 82.1}
{"Molecule": "COc1ccc(N2CC(C(=O)Nc3ccc(F)cc3F)CC2=O)cc1 (centres undefined)", "Observed measurement": 91.4}

Ask: // lookup viability for "CC(C)CNS(=O)(=O)c1ccc(OCC(=O)Nc2ccc3c(c2)OCO3)c(Cl)c1"
Reply: 69

Ask: And then "O=C1N=C(N2CCOCC2)CS1" , what is it?
Reply: 98.3

Ask: And then "CCOC(=O)c1cc2c(=O)n3cccc(C)c3nc2n(Cc2ccco2)c1=NC(=O)c1cccnc1" , what is it?
Reply: 72.4

Ask: And then "COc1ccc2nc3oc(C(=O)N4CCCCC4)cc3cc2c1" , what is it?
Reply: 83.9
